Molecular target: T1, human IGF2^1-67 (mature insulin-like growth factor 2) (human, UniProt P01344 25-91, biotinylated (site not stated) where immobilised on the chip (Tables 1-4))
T1 construct: mature; also called mature IGF2; biotinylated IGF2
T1 sequence (P01344 25-91): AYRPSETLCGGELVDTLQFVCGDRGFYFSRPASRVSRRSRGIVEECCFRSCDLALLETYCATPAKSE
Experiment: SPR kinetic, biotin-IGF2 on chip, pH 6.5
Observed property: kon (M⁻¹ s⁻¹)

Binder	Observed property	Unit	Reported
domain 11^AB5 Q1569R P1597H G1603K (receptor, See m5) MKSNEHDDCQVTNPSTGHLFDLSSLSGRAGFTAAYAKGWGVYMSICGENENCPPGVGACFGRTRISVGKANKRLRYVDQVLQLVYKDGSHCPSKSKLSYKSVISFVCRPEAGPTNRPMLISLDKQTCTLFFSWHTPLACEQATECSV	kon	M⁻¹ s⁻¹	7.54e+06
